Data provenance is PubChem BioAssay AID179.

# System: CEM cells HIV-1 protection, formazan growth assay
# PROCEDURE_SUMMARY: NCI AIDS Antiviral Assay;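 active = compounds giving half or more protection of infected cells from virus-caused growth loss, again on retest; inactive = the rest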
Use one of these outcomes when replying: active, inactive

Example cases with answers are listed next.
COMPOUND	DISCRETE_LABEL
CC1CC2=C(C(=O)O1)C(c1ccccc1)Nc1ccccc1N2 (stereo not given)	inactive
O=C(O)c1ccc([N+](=O)[O-])c2cc3cnccc3nc12	inactive
c1cnn(P2(n3cccn3)=NP(n3cccn3)(n3cccn3)=NP(n3cccn3)(n3cccn3)=NP(n3cccn3)(n3cccn3)=NP(n3cccn3)(n3cccn3)=NP(n3cccn3)(n3cccn3)=N2)c1	inactive
Nn1c(CCCCCCCCc2nnc(COc3ccc(Cl)cc3Cl)n2N)nnc1COc1ccc(Cl)cc1Cl	inactive
NC(N)=NS(=O)(=O)c1ccc(NC(=O)c2cccc3c(Nc4ccc(S(=O)(=O)N=C(N)N)cc4)c4ccccc4nc23)cc1	inactive

# lookup: test call for COc1c(C)c(-c2c(C)c(OC)c3c(c2OC)OCO3)c(OC)c2c1OCO2
inactive

# lookup: test call for O=C(/C=C(\O)C(=O)O)/C=C(\O)c1ccccc1Cl
active

# lookup: test call for COc1cc(C)cc2c1C(=O)C(Br)(Br)CC2
inactive

# lookup: test call for CC1=CCCC(C)C1(C)CC/C(C)=C/CC/C(C)=C/CS(=O)(=O)CCN=C(N)N (stereo not given)
inactive

# lookup: test call for CCOc1cc2cnc3c4cc(OC)c(OC)cc4ccc3c2cc1OC
inactive

----------
# Tested on: CEM cells HIV-1 protection, formazan growth assay
# PROCEDURE_SUMMARY: NCI AIDS Antiviral Assay
# STUDY_CONDITIONS: measured here: growth of uninfected CEM cells
MEASURED_PROPERTY: log10 IC50 (log10 of the value in µM)
Base-10 log of IC50, unit µM.

Examples from the recorded data:
>>> df
                                   molecule  obs_value
0  COc1ccc(C(Nc2nc3c(ncn3COCCOP(=O)(OCOC(=O)C(C)(C)C)OCOC(=O)C(C)(C)C)c(=O)[nH]2)(c2ccccc2)c2ccccc2)cc1       0.94
1  NNC1=Nc2ccccc2N=C2CCSCC21 (configuration not stated)       2.25
2  CCOC(=O)c1cccn1S(=O)(=O)c1cc(Cl)ccc1NC(=O)CC       2.29
3  CCC1=CC(OCc2ccccc2)C(CCN(Cc2ccccc2)C(=O)OCc2ccccc2)C1 (configuration not stated)       0.98

// fetch log10 IC50 given entry O=C1CSC(/C=C/c2ccccc2)N1c1ccc(-c2ccc(-n3c(-c4ccccc4)nc4ccccc4c3=O)cc2)cc1 (configuration not stated)
1.45

----------
# Test system: CEM cells HIV-1 protection, formazan growth assay
# PROCEDURE_SUMMARY: NCI AIDS Antiviral Assay
# STUDY_CONDITIONS: measured here: growth of uninfected CEM cells
MEASURED_PROPERTY: pIC50
Please keep in mind that pIC50 is minus log10 of the molar concentration; only the number is needed.

// fetch pIC50 given entry CC(C)(C)OC(=O)NC(Cc1ccccc1)OCc1ccccc1 (centres undefined)
4.34

// fetch pIC50 given entry O=C1c2cccc3cc([N+](=O)[O-])cc(c23)C(=O)N1Nc1ccc([N+](=O)[O-])cc1[N+](=O)[O-]
5.01

// fetch pIC50 given entry CCCCCCCCCC=C(c1cc(Br)cc(C(=O)O)c1OC)c1cc(Br)cc(C(=O)O)c1OC
4.12

// fetch pIC50 given entry OCC(O)COc1ccc(Br)cc1 (centres undefined)
3.19

// fetch pIC50 given entry [O-][n+]1onc2c1-c1nonc1CC2
4.57

// fetch pIC50 given entry N=C1N(c2ccccc2)C(N)(N)SSC(N)(N)N1c1ccccc1
4.76

// fetch pIC50 given entry CCc1cc2c(c3c1CCCC3=O)CC1(Cc3ccc(C(=O)OC)cc3C1)C2 (centres undefined)
4.44

// fetch pIC50 given entry N=C(N)c1ccc(/C=C/c2ccc(C(=N)N)cc2O)cc1
4.26

// fetch pIC50 given entry CN(C)CCC(O)(Cc1ccccc1)c1ccco1 (centres undefined)
4.46

// fetch pIC50 given entry COc1cc(C(=O)N(C(=S)OCc2ccccn2)c2ccccc2)cc(OC)c1OC
4.13

// fetch pIC50 given entry O=[N+]([O-])c1cccc2nc3ccccc3c(NCCCn3ccnc3[N+](=O)[O-])c12
7.34

----------
Recorded measurements of pIC50, one per entry
# Test system: CEM cells HIV-1 protection, formazan growth assay
# PROCEDURE_SUMMARY: NCI AIDS Antiviral Assay
# STUDY_CONDITIONS: measured here: growth of uninfected CEM cells
Please keep in mind that pIC50 is minus log10 of the molar concentration; only the number is needed.

Examples from the recorded data:
In [3]: df
Out[3]:
                                   compound  obs_value
0  O=C1/C(=C/c2cccc(Br)c2)CSC/C1=C\c1cccc(Br)c1       5.54
1   N#Cc1c2n(c(=S)n(-c3ccccc3)c1=N)CCCCCCC2       4.97
2  CN1C(=O)C2CSCN2C1=S (stereo unspecified)       3.50

// fetch pIC50 given entry COCn1cnc2c(=O)n(-c3ccc(C)cc3)c(=S)n(-c3ccc(C)cc3)c21
3.86

// fetch pIC50 given entry O=C(C1OC1c1ccc(F)cc1)C12CC3CC(CC(C3)C1)C2 (stereo unspecified)
4.92

// fetch pIC50 given entry COc1cc(C(Cc2ccccc2)NC(C)=O)oc(=O)c1 (stereo unspecified)
3.81

----------
# Test system: CEM cells HIV-1 protection, formazan growth assay
# PROCEDURE_SUMMARY: NCI AIDS Antiviral Assay
Recorded measurements of EC50, one per entry

Examples from the recorded data:
COMPOUND	EC50
CCOC(=O)/C(=C/c1ccc([N+](=O)[O-])cc1)N(CC)CC	> 324 µM
Cc1cccc2[nH]c3cc(O)cc(O)c3c(=O)c12	> 200 µM
COC(=O)c1c2c(cc3c1CCC3)CCC2	> 200 µM

// fetch EC50 given entry CCCCCCCCCCCCCCCCOC1OC(CS(=O)(=O)O)C(O)C(O)C1O (stereo not given)
> 138 µM

// fetch EC50 given entry O=C(O)c1cc2oc(-c3ccccc3)cc2[nH]1
> 219 µM

// fetch EC50 given entry SC1N=C(c2ccccc2)N2C(S)N=C(c3ccccc3)N12 (stereo not given)
> 200 µM

// fetch EC50 given entry C=CCC1(OC(C)=O)C2OC(=O)C1(O)OCC2O (stereo not given)
> 200 µM

// fetch EC50 given entry CCN(CC)CC(=O)NC1c2ccc(Cl)cc2Oc2c(C)cccc21 (stereo not given)
> 72.4 µM

// fetch EC50 given entry NC1CC(n2ccc(=O)[nH]c2=O)OC1C(O)CO (stereo not given)
> 100 µM

// fetch EC50 given entry Nc1c(S(=O)(=O)O)cc2cc(S(=O)(=O)O)ccc2c1N=Nc1ccc(/C=C/c2ccc(N=Nc3c(N)c(S(=O)(=O)O)cc4cc(S(=O)(=O)O)ccc34)cc2S(=O)(=O)O)c(S(=O)(=O)O)c1
2.82 µM

----------
Recorded measurements of IC50, one per entry
# Tested on: CEM cells HIV-1 protection, formazan growth assay
# PROCEDURE_SUMMARY: NCI AIDS Antiviral Assay
# STUDY_CONDITIONS: measured here: growth of uninfected CEM cells

>>> df
                                   compound                                    system  measured_property  obs_value
0  Cc1cc(S(=O)(=O)Nc2nnc3c(Cl)cc(C(F)(F)F)cn23)c(S)cc1Cl  CEM cells HIV-1 protection, formazan growth assay               IC50     380 µM
1  COC12C=CC(CC1)C(C)(C)C2=O (stereo unspecified)  CEM cells HIV-1 protection, formazan growth assay               IC50   > 200 µM
2  OC(CNc1ccccn1)c1ccccc1 (stereo unspecified)  CEM cells HIV-1 protection, formazan growth assay               IC50   > 200 µM

// fetch IC50 given entry O=c1[nH]oc2ccccc12
> 200 µM

// fetch IC50 given entry CC(=O)O[C@H]1CC[C@@]2(C)C(=CC[C@@H]3C2CC[C@@]2(C)C3CC[C@@H]2c2ncc(-c3ccccc3)s2)C1 (stereo partly specified)
> 52.5 µM

// fetch IC50 given entry CCOC(=O)c1ccc(CSc2ccc(N)cc2)cc1
240 µM

----------
Recorded measurements of EC50, one per entry
# System: CEM cells HIV-1 protection, formazan growth assay
# PROCEDURE_SUMMARY: NCI AIDS Antiviral Assay
# Experimental: The ability of compounds to protect human CEM cells from HIV-1 infection is measured as a screen for new compounds capable of inhibiting the HIV virus. Five concentrations of drug were tested on uninfected and infected cells and cell growth was measured using a soluble formazan assay. […] Compounds that provided at least 50% protection were retested. Compounds that provided at least 50% protection on retest were listed as moderately active. […]

                                   compound  obs_value
0  CC(=O)N(C(=O)CC(=O)NNCc1ccccc1Cl)c1ccc(Cl)cc1   > 200 µM
1          NC(N)=Nc1ccccc1SSc1ccccc1N=C(N)N    8.13 µM
2       CCOc1cc(C2=NNc3n[nH]c(=S)n3N2)ccc1O     151 µM
3  O=S(=O)(O)c1ccc(O)c(N=Nc2ccc(/C=C/c3ccc(N=Nc4cc(S(=O)(=O)O)ccc4O)cc3S(=O)(=O)O)c(S(=O)(=O)O)c2)c1   > 200 µM
4  COc1cc(C(C2=C(O)c3ccccc3C(=O)C2=O)C2=C(O)c3ccccc3C(=O)C2=O)cc(Br)c1O   > 200 µM
5  Cc1ccc2c(c1)C(=O)N1CSCC1C(=O)S2 (stereo not given)   > 251 µM

// fetch EC50 given entry CC/C=C\C/C=C\C/C=C\CCCCCCCC(=O)OCC(O)CO (stereo not given)
> 28.2 µM

// fetch EC50 given entry CCOC(=O)/C(=C\c1ccco1)C(C)=O
> 240 µM

// fetch EC50 given entry CC(=O)N/C(=C\c1ccc(Cc2nc3c([nH]2)C(=O)c2ccccc2C3=O)cc1)c1nc2c([nH]1)C(=O)c1ccccc1C2=O
> 12.6 µM

// fetch EC50 given entry CCOC(=O)C(=Cc1cccc(C#N)c1)C(=O)OCC
> 132 µM
